Give shrunken log2 fold change for every item shown.
tested on: Escherichia coli TOP10; assay: shrunken log2 fold change of peptide-encoding DNA abundance (4.5 h post-induction vs induction); higher = less antimicrobial activity (less host growth inhibition); conditions: time post-induction: 4.5 h; library: site-saturation at positions 5, 18, 19, 20;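 further: peptides expressed intracellularly from a pBAD plasmid library in pooled LB shake-flask culture, induced with 0.3% L-arabinose, DNA abundance read by NGS, three biological replicates, DESeq2 with apeglm shrinkage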
Format: numeric value only, no unit, no commentary.

Requested read-out: shrunken log2 fold change. Entry: RRIRWRPPRLPRPRPRPIFKPRP
0.0632

Form field: reported shrunken log2 fold change of RRIRVRPPRLPRPRPRPQVWPRP
0.345

// query shrunken log2 fold change value for entry RRIRQRPPRLPRPRPRPMPPPRP
0.517

For RRIRYRPPRLPRPRPRPCKKPRP , what is its reported shrunken log2 fold change?
-0.0222

So what does the record say about shrunken log2 fold change for RRIRRRPPRLPRPRPRPHNNPRP ?
-0.508

Entry RRIRSRPPRLPRPRPRPPTRPRP has what shrunken log2 fold change?
0.651

Item under review: RRIRKRPPRLPRPRPRPHQEPRP . Reported shrunken log2 fold change?
0.0459

# shrunken log2 fold change lookup, item RRIRYRPPRLPRPRPRPRGAPRP
1.34

So what does the record say about shrunken log2 fold change for RRIRGRPPRLPRPRPRPFYAPRP ?
0.0161

What measured shrunken log2 fold change goes with RRIRQRPPRLPRPRPRPSTTPRP ?
-0.572

# query: shrunken log2 fold change of entry RRIRARPPRLPRPRPRPLKRPRP
0.37

Please look up its shrunken log2 fold change: RRIRHRPPRLPRPRPRPYVYPRP
-0.0796

Returns the measured shrunken log2 fold change for the input sequence. Input: RRIRKRPPRLPRPRPRPHYTPRP
-0.395

shrunken log2 fold change for RRIRGRPPRLPRPRPRPKHDPRP ?
0.466

Looking for the measured shrunken log2 fold change of RRIRLRPPRLPRPRPRPYGRPRP , can you help?
-0.2

Using the record for RRIRDRPPRLPRPRPRPPKPPRP , report its shrunken log2 fold change.
0.214
